These entries and their values trace back to the pKa sets of Baltruschat and Czodrowski (2020).

Details: basic group
PARAMETER: pKa
Please give only the number in your answer, with no unit.

C[C@H](CCCN)[C@H]1CC[C@H]2[C@@H]3CC[C@@H]4C[C@H](O)CC[C@]4(C)[C@H]3CC[C@]12C ... 9.7
Cc1nc(-c2ccccc2SCc2ccccc2)[nH]c1C ... 7
C[C@@H]1[C@@H](N)[C@H]1N ... 8.98

Now examine the next entry.
Quick one: pKa of Nc1cccc2nc3ccccc3c(N)c12 ?
11

###

Conditions: acidic group
PARAMETER: pKa
API doc: respond with a numeric literal and nothing else, no unit.

Here is how some compounds turned out for pKa.
CCC1(C)OC(=O)NC1=O (stereo not given) ... 6
CC1C(=O)c2ccccc2C1=O ... 6.17
COc1cccc(-c2nnn[nH]2)c1 ... 3.91
Cc1c(C)c(O)c(C)c(C)c1[O-] ... 12.8

# input for lookup
Which pKa reading was recorded for the compound Cc1ccccc1OC(C)C(=O)O (stereo not given) ?
3.37
